- TARGET_OF_ASSAY: T1, human PD-1 (soluble PD-1 protein, R&D Systems) (human, UniProt Q15116 25-170, limits assumed)
- T1 construct: the kinetics paragraphs say only 'PD-1' / 'antigen'; also called hPD-1; soluble PD-1 immunogen
- PROCEDURE_DETAILS: BLI (ForteBio), mAb on AHC biosensor, PD-1 as analyte
Entries annotated with measured koff
Numbers only; they are read as s⁻¹.

Sample answers from the record:
Please give the measured koff for this binder: A12 (antibody, V domains shown, Tested as full-length mAb expressed in CHO cells; also called antibody A12; L12H12) VH: QVQLVESGGGVVQPGRSLRLSCAASGFTFSSYGMHWVRQAPGKGLEWVAVIWYDGSNKYYADSVKGRFTISRDNSKNTLYLQMNSLRAEDSAVYYCVCNPFDYWGQGTLVTVSS VL: DIQMTQSPSSLSASVGDRVTVTCRSSQGIAHYLAWYQQKPGKVPKVLLYAASTLQSGVPSRFSGSGSGTDFTLTISSLQPEDVATYYCQKYNSAPYTFGQGTKLEIK
0.000516

Then A18 (antibody, V domains shown, Tested as full-length mAb expressed in CHO cells; also called antibody 18; L18H18) VH: QVQLVQSGTEVKKPGASVKVSCQASGYTFTSYDISWVRRAPGQGLEWMGWISAYNGNTNYAQKLQGRVTLTTDTSTSTAYMELRSLRSDDTAVYYCARRYYDILTEGGYYYVLDVWGQGTTVTVSS VL: AIRMTQSPSSFSASTGDRVTITCRASQGISSYLAWYQQKPGKAPTLLIYAASTLQSGVPSRFSGSGSGTDFTLTISCLQSEDFATYYCQQYYSDPPTFGQGTKVEIK ?
0.00228

Next binder: A21 (antibody, V domains shown, Tested as full-length mAb expressed in CHO cells; also called antibody 21; L21H21) VH: QVQLVQSGAEVKKPGASVKVSCKASGYTFTSYYMHWVRQAPGQGLEWMGIINPSGSSTSYAQKFQGRVTMTRDTSTSTVYMELSSLRSEDTAVYYCARYGVWGSYRSLDYWGQGTLVTVSS VL: AIQMTQSPSSLSASVGDRVTITCRASQGIRNELGWYQQKPGKAPKLLICAASSLQSGVPSRFSGSGSGTDFTLTISSLQPEDFATYYCLQDYIYPYTFGQGTKLEIK
0.00142

One more binder: A23 (antibody, V domains shown, Tested as full-length mAb expressed in CHO cells; also called antibody 23; L23H23) VH: QVQLVESGGGVVQPGRSLRLSCVASGFTFSNYGMHWVRQAPGKGLEWVAIIWYDGSIKYYADSVKGRFTISRDNSKNTLHLQMNSLRAEDTAVYYCARWGIYFDYWGQGTLVTVSS VL: EIVMTQSPATLSVSPGERATLSCRASQSVSSNLAWYQQKPGQAPRLLIYGASTRATGIPARFSGSGSGTEFTLTISSLQSEDFAVYYCQQYHNWPLTFGGGTKVEIK
0.00184

What do we get for A17 (antibody, V domains shown, Tested as full-length mAb expressed in CHO cells; also called antibody 17; L17H17) VH: QVQLVESGGGVVQPGRSLRLSCAASGFTFSSYGMHWVRQAPGKGLEWVAVIWYDGSNQYYADSVKGRFTISRDNSKNTLFLQMNSLRAEDTAVYFCAGGGNYYGDFWGQGTLVTVSS VL: DIQMTQSPSSLSASVGDRVTITCRASQGIRNDLGWYQQKPGKAPKRLIYAASSLQSGVPSRFSGSGSGTEFTLTISSLQPEDFATYYCLQYISYPWTFGQGTKVEIK ?
0.0079

# iterate: A22 (antibody, V domains shown, Tested as full-length mAb expressed in CHO cells; also called antibody 22; L22H22) VH: QVQLVESGGGVVQPGRSLRLSCAASGFTFSNYGMHWVRQAPGKGLEWVAVIWYDGSNKYYADSVKGRFTISRDNSKNTLYLQMNSLRAEDTAVYYCARLYYYDSSGYYPDAFDIWGQGTMVTVSS VL: DIQMTQSPSSLSASVGDRVTITCRASQGIRNDLGWYQQKPGKAPKRLIYAASSLQSGVPSRFSGSGSGTEFTLTISSLQPEDFATYYCLQHNSYPFTFGPGTKVEIK
0.00667

Ok, now A24 (antibody, V domains shown, Tested as full-length mAb expressed in CHO cells; also called antibody 24; L24H24) VH: QVQLVESGGGVVQPGRSLRLSCAASGFTFSDSGMHWVRQAPGKGLEWVAVIWYDGSKKYYVDSVKGRFTISRDNSKNTLYLQMNSLRAEDTAVYYCATEGDYWGQGTLVTVSS VL: EIVMTQSPATLSVFPGERATLSCRASQSVSSNLGWYQQKPGQAPRLLMYGASTRVTGIPARFSGSGSGTEFTLTISSLQSEDFAVYYCQQYNTWPRTFGQGTKVEIK
0.00185

Try A27 (antibody, V domains shown, Tested as full-length mAb expressed in CHO cells; also called antibody 27; L27H27) VH: QVQLVQSGAELVRPGTSVKLSCRASGYTFTTYWMHWVKQRPGQGLEWIGVIDPSDSYTYYNQKFKGKATLTVDTSSSTAYMQLSSLTSEDSAVYFCARNWDYWGQGTTLTVSS VL: AIQLTQSPSSLSASVGDRVTITCRASQGISSALAWYQQKPGKAPKLLIYDASSLESGVPSRFSGSGSGTDFTLTISSLQPEDFATYYCQQFNDYALTFGGGTKVEIK next.
0.000972

Further cases:
Given A20 (antibody, V domains shown, Tested as full-length mAb expressed in CHO cells; also called antibody 20; L20H20) VH: EVQLVESGGGLVQPGGSLRLSCAASGFTFSFYDMHWVRQAKGKGLEWVSAIGTAGDTYYPGSVKGRFTISRENAKNSLYLQMNSLRAGDTAVYYCARGYCSTTNCFADYFDYWGQGTLVTVSS VL: DIQLTQSPSFLSASVGDRVTITCRASQGISNYLAWYQQKPGKAPKLLIYAASTLQSGVPSRFSGSGSGTEFTLTISSLQPEDFATYYCHQLNSFPLTFGGGTKVEIK , state its recorded koff.
0.00191

Could you do the same for A26 (antibody, V domains shown, Tested as full-length mAb expressed in CHO cells; also called antibody 26; L26H26) VH: QVQLVESGGGVVQPGRSLRLSCAASGFTFSDYGMHWVRQAPGKGLEWVAVIWYDGSNKYYTDSVKGRFTISRDNSKNTLYLQMSSLRAEDAAVYYCAVNPFDYWGQGTLVTVSS VL: DIQMTQSPSSLSASVGDRVTISCRASQGISNYLAWYQQKPGKVPKVLIYGASTLQSGVPSRFSGSGSGTDFTLTISSLQPEDVATYYCQKYNSAPYTFGQGTKLEIK , please?
0.00104
